Task for the reader: assign each of the following sequences its reported recombinant UMI read abundance (log10).
# Method Description: recombinant UMI read abundance after kanamycin selection (control-corrected) (log10(CPM+1)); higher = more efficient recombination; extreme values may be limits of the assay; sequences stand for … in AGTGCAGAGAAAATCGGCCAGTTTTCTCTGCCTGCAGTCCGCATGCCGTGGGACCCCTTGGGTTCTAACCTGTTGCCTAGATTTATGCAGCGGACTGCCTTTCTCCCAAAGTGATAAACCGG…AGGTTGGTTTCACT; site = the 11-nt donor
One number for each entry.

polymer_sequence="GATACGTCATGGACCGGTTTTCCCGGTAATCCGTATTTGTT (site GATACGTCTAA)" measured_property="recombinant UMI read abundance (log10)" experimental_result=0.338

Would you mind listing recombinant UMI read abundance (log10) for each of the following sequences?
1. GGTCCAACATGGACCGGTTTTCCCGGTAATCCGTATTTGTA (site GGTTCAACTTA)
2. CCCCAGACATGGACCGGTTTTCCCGGTAATCCGTATTTGTA (site CCCCATACTTA)
3. CACTGGGCATGGACCGGTTTTCCCGGTAATCCGTATTTGGA (site CACTGGGCTTC)

result:
1. 0.0111
2. 0.00999
3. 1.12

###

# Method Description: recombinant barcode read abundance after kanamycin selection (control-corrected) (log10(CPM+1)); higher = more efficient recombination; sequences stand for … in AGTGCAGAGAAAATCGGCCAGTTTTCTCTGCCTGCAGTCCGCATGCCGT…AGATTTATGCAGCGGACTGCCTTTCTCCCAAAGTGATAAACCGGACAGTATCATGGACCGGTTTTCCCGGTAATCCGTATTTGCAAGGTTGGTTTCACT; site = the 11-nt target
Range-based classes on measured recombinant barcode read abundance (log10): band A: < 0.08; band B: ≥ 0.08 and < 0.6; band C: ≥ 0.6

The following sequences have reported results that may help.
polymer_sequence="GACGGATCTTGGGTTCTAACCTGTTGCCT (site GACGGATCTAC)" classification="band B"
polymer_sequence="AGGCACTCTTGGGTTCTAACCTGTTGCTG (site TGGCACTCTAA)" classification="band B"
polymer_sequence="CTCCGTACTTGGGTTCTAACCTGTTGCCT (site CTCCGGACTAG)" classification="band B"
polymer_sequence="GCCCAATCTTGGGTTCTAACCTGTTGCCT (site GCCCCATCTAG)" classification="band B"
polymer_sequence="GGGACTACTTGGGTTCTAACCTGTTGCCG (site ACTCGCTCTGT)" classification="band B"
polymer_sequence="GAAAAGGCTTGGGTTCTAACCTGTTGCCT (site GAAAAGGCTAG)" classification="band C"
polymer_sequence="CTACAGCCTTGGGTTCTAACCTGTTGCTT (site CTACAACCTAA)" classification="band C"
polymer_sequence="GACGGGGCTTGGGTTCTAACCTGTTGCAG (site GACGGGGCTCT)" classification="band C"

query: Band of CTATGACCTTGGGTTCTAACCTGTTGCCT (site CTATGACCTAT) ?
result: band B

query: Band of GAAACGTCTTGGGTTCTAACCTGTTGCCT (site GAAACGTCTAG) ?
result: band C

query: Band of GTCGGGTCTTGGGTTCTAACCTGTTGCCT (site GTCCGGTCTAA) ?
result: band A

query: Band of GCATCTACTTGGGTTCTAACCTGTTGCCT (site GGATCTACTAG) ?
result: band A

query: Band of TAGCCGACTTGGGTTCTAACCTGTTGCCT (site TAGCCGACTAG) ?
result: band C

query: Band of TCTGAGGCTTGGGTTCTAACCTGTTGCTG (site TCGGAGGCTCA) ?
result: band A

query: Band of ATTTGTACTTGGGTTCTAACCTGTTGCCT (site ATTTGAACTAG) ?
result: band A
